Source: ChEMBL document CHEMBL1133262

Tested on: Staphylococcus aureus
assay-remarks: Minimum inhibitory concentration against methicillin sensitive organism Staphylococcus aureus 853
Assay type: functional
Catalogue of MIC values
Please state the figure in µg/mL; there is no need to write the unit.

Examples with answers:
CCC(C)C(=O)C(=O)NCCc1c(-c2cccnc2)[nH]c2ccccc12 (stereo not given): 0.5
CCC(C)C(=O)C(=O)NCCn1c(-c2ccccc2)nc2ccccc21 (stereo not given): 8

In plain terms, CCC(C)C(=O)C(=O)NCCc1cn(Cc2ccccc2)c2ccccc12 (stereo not given) has a documented MIC of 2

In plain terms, CCC(C)C(=O)C(=O)NCCc1c[nH]c2ccccc12 (stereo not given) has a documented MIC of 2

---

Catalogue of MIC values
System: Staphylococcus aureus
assay-remarks: Minimum inhibitory concentration against methicillin sensitive organism Staphylococcus aureus 853
Type: functional

Examples with answers:
CCC(C)C(=O)C(=O)NCCc1c(-c2ccc[n+](C)c2)[nH]c2ccccc12.[I-] (stereo unspecified): > 32 µg/mL
CCC(C)C(=O)C(=O)NCCn1cnc2ccccc21 (stereo unspecified): > 32 µg/mL
CCC(C)C(=O)C(=O)NCCc1c(-c2ccc[n+](CC(N)=O)c2)[nH]c2ccccc12.[I-] (stereo unspecified): > 32 µg/mL

In plain terms, CCC(C)C(=O)C(=O)NCCn1c[n+](C)c2ccccc21.[I-] (stereo unspecified) has a documented MIC of > 32 µg/mL

In plain terms, CCC(C)C(=O)C(=O)NCCc1c(-c2ccccc2)[nH]c2ccccc12 (stereo unspecified) has a documented MIC of < 0.03 µg/mL

In plain terms, CCC(C)C(=O)C(=O)NCCn1c(-c2ccccc2)[n+](C)c2ccccc21.[I-] (stereo unspecified) has a documented MIC of > 32 µg/mL
